- subjectOfTest: human activated kallikrein enzyme (Homo sapiens)
- assayComment: Inhibition of human activated plasma kallikrein, fluorogenic PFR-AMC substrate, 500 pM enzyme format
- Format: biochemical
- cond: 500 pM activated kallikrein; 300 μM PFR-AMC; 30 min preincubation; 10 min room temperature; pH 7.5; read-out: Primary Dose Response Assay: Average EC50
Where a name gives a salt, the structure may show the parent alone.
Task for the reader: assign each of the following compounds its reported EC50.

EC50 reading for Cc1cc2c(N)nccc2c(C)c1CNC(=O)c1cnn(Cc2cc(Cl)cc(Cl)c2)c1 [Example 37] : 10 to 100 nM

Measured EC50, Cc1cc2c(N)nccc2c(C)c1CNc1cc(OCc2cn3cc(C4CC4)ccc3n2)cnn1 [Example 426, formic acid salt] : < 1 nM

// EC50 value for Cc1cc2c(N)nccc2c(C)c1CNC(=O)c1cnn(Cc2nc3ccccc3o2)c1 [Example 85] : 10 to 100 nM

* * *

- subjectOfTest: human activated kallikrein enzyme (Homo sapiens)
- assayComment: Inhibition of human activated plasma kallikrein, fluorogenic PFR-AMC substrate, 500 pM enzyme format
- Type: biochemical
- cond: 500 pM activated kallikrein; 300 μM PFR-AMC; 30 min preincubation; 10 min room temperature; pH 7.5; read-out: Primary Dose Response Assay: Average EC50
endpointLabel: EC50

EC50 for Cc1cc2c(N)nccc2c(C)c1CNC(=O)c1cnn(Cc2ccc(C(F)(F)C(=O)N(C)C)cc2)c1 [Example 23] is 10 to 100 nM

Sure, the documented EC50 for Cc1cc2c(N)nccc2c(C)c1CNc1cc(OCc2cc3cc(C4CC4)cc(CC(C)(C)C#N)n3n2)ncn1 [Example 510] is 1 to 10 nM

// EC50 value for Cc1cc2c(N)nccc2c(C)c1CNc1nccn2cc(Cc3ccc4ccccc4c3)nc12 [Example 525] : 100 to 1000 nM

Record Cc1cc2c(N)nccc2c(C)c1CNc1cc(=O)n(Cc2cn3c(=O)n(C4CC4)ccc3n2)cn1 [Example 505] . Reported EC50: > 1000 nM

// field: EC50; key: Cc1cc2c(N)nccc2c(C)c1CNc1cc(OCc2cnn(-c3ccccc3)c2)cnn1 [Example 442] ; value = 1 to 10 nM

* * *

- subjectOfTest: human activated kallikrein enzyme (Homo sapiens)
- assayComment: Inhibition of human activated plasma kallikrein, fluorogenic PFR-AMC substrate, 500 pM enzyme format
- Format: biochemical
- cond: 500 pM activated kallikrein; 300 μM PFR-AMC; 30 min preincubation; 10 min room temperature; pH 7.5; read-out: Primary Dose Response Assay: Average EC50
pEC50: −log10 of the molar value.
So I've got a bunch of molecules here, and I need their pEC50 values.

Value of measured pEC50 for the entry Cc1cc2c(N)nccc2c(C)c1CNC(=O)c1nnc(Cc2cn3cc(C4CC4)ccc3n2)o1 [Example 190] : > 9.00

Input Cc1cc2nc(Cn3cc(C(=O)NCc4c(C)cc5c(N)nccc5c4C)cn3)cn2cc1Br [Example 135] . Output pEC50: > 9.00

Memo: Cc1cc2c(N)nccc2c(C)c1CNc1cc2c(cn1)cnn2Cc1ccc(Cn2cccn2)cc1 [Example I-458] , reported pEC50: 8.00 to 9.00

Note to self: pEC50 recorded for Cc1cc2c(N)nccc2c(C)c1CNc1nccc2cn(Cc3ccc(Cn4cccn4)cc3)nc12 [Example 260] was 8.00 to 9.00

* * *

So I've got a bunch of molecules here, and I need their EC50 values.
- subjectOfTest: human activated kallikrein enzyme (Homo sapiens, UniProt P03952)
- Sequence (P03952 391-638 limits assumed): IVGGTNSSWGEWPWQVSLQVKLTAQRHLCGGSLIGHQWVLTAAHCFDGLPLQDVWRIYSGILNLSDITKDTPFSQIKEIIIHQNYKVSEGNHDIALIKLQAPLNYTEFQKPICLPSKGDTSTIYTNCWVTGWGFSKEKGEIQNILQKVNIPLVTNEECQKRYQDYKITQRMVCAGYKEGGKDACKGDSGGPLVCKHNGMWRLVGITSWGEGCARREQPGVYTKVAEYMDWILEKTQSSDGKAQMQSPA
- Sequence (P03952 20-390 partner limits assumed): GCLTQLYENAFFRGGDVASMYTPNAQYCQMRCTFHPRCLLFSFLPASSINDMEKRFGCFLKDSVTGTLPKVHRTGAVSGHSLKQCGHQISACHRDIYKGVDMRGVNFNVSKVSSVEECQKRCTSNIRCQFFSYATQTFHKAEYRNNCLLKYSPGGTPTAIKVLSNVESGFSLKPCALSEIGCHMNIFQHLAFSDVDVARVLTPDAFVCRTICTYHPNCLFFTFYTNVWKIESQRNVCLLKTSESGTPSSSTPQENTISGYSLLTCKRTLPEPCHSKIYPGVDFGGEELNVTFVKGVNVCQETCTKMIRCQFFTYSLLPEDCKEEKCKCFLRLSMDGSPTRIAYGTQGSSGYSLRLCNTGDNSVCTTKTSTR
- assayComment: Inhibition of human activated plasma kallikrein, fluorogenic PFR-AMC substrate, 500 pM enzyme format
- Format: biochemical
- cond: 500 pM activated kallikrein; 300 μM PFR-AMC; 30 min preincubation; 10 min room temperature; pH 7.5; read-out: Primary Dose Response Assay: Average EC50

Quick note, EC50 for "Cc1cc2c(N)nccc2c(C)c1CNc1cc(NCc2ccc(Cn3cccn3)cc2)ncn1" landed at < 0.001 µM

"Cc1cc2c(N)nccc2c(C)c1CNC(=O)c1cnn(Cc2ccc(C(F)(F)F)cc2)c1" yielded EC50 of 0.01 to 0.1 µM

# molecule "Cc1ccc2nc(COc3cnnc(NCc4c(C)cc5c(N)nccc5c4C)c3)cn2c1" ; its EC50 = < 0.001 µM

Short answer for "Cc1cc2c(N)nccc2c(C)c1CNC(=O)c1cnn(Cc2cn3c(Cl)c(Br)ccc3n2)c1" : EC50 was < 0.001 µM

So, "Cc1cc2c(N)nccc2c(C)c1CNC(=O)c1cnn(Cc2cccc(F)c2)c1" ? Its EC50 was 0.1 to 1 µM

The value of EC50 measured for the molecule "Cc1cc2c(N)nccc2c(C)c1CNc1cc(OCc2nc3cc(C4CC4)ccc3s2)ncn1" turned out to be 0.1 to 1 µM

Record summary for "Cc1cc2c(N)nccc2c(C)c1CNC(=O)Nc1ncncc1OCc1cn2cc(C3CC3)ccc2n1" : reported EC50 = 0.001 to 0.01 µM

* * *

I'd appreciate it if you could supply pEC50 values for the items below.
- subjectOfTest: human activated kallikrein enzyme (Homo sapiens)
- assayComment: Inhibition of human activated plasma kallikrein, fluorogenic PFR-AMC substrate, 500 pM enzyme format
- Format: biochemical
- cond: 500 pM activated kallikrein; 300 μM PFR-AMC; 30 min preincubation; 10 min room temperature; pH 7.5; read-out: Primary Dose Response Assay: Average EC50
pEC50: −log10 of the molar value. Counter-ions that a name gives are not always drawn.

The compound identified as "Cc1cc2c(N)nccc2c(C)c1CNC(=O)c1ccnc(Cc2ccc3ncc(Cl)cc3c2)c1" registered its pEC50 at > 9.00

Lab note: measured pEC50 of "Cc1cc2c(N)nccc2c(C)c1CNc1cc(OCc2ccc(Cn3cccn3)nc2)cnn1" was 6.00 to 7.00

Looking up Cc1cc2c(N)nccc2c(C)c1CNc1cc(NCc2ccc(OC3(C(=O)N(C)C)CC3)cc2)ncn1 [Example 357, formic acid salt] , I see its pEC50 listed as 7.00 to 8.00

The measured pEC50 associated with "Cc1cc2c(N)nccc2c(C)c1CNc1cc(OCc2ccc(Cc3ccn(C)n3)cc2)cnn1" reads > 9.00

Looking up "Cc1cc2c(N)nccc2c(C)c1CNC(=O)c1ccnc(Cc2cn3cc(C4CC4)ccc3n2)c1" , I see its pEC50 listed as > 9.00

compound "Cc1cc2c(N)nccc2c(C)c1CNc1cnc2[nH]cc(Cc3ccc4ccccc4c3)c2c1" , pEC50 observed: < 6.00

The compound Cc1ccc2nc(C(C)n3cc(C(=O)NCc4c(C)cc5c(N)nccc5c4C)cn3)cn2c1 (single isomer, unassigned) [Example 11] showed pEC50 equal to > 9.00

Reported pEC50 of "C=Cc1cnc2ccc(Cn3cc(C(=O)NCc4c(C)cc5c(N)nccc5c4C)cn3)cc2c1" : > 9.00

* * *

- subjectOfTest: human activated kallikrein enzyme (Homo sapiens, UniProt P03952)
- assayComment: Inhibition of human activated plasma kallikrein, fluorogenic PFR-AMC substrate, 500 pM enzyme format
- Type: biochemical
- cond: 500 pM activated kallikrein; 300 μM PFR-AMC; 30 min preincubation; 10 min room temperature; pH 7.5; read-out: Primary Dose Response Assay: Average EC50
endpointLabel: EC50

The compound "Cc1cc2c(N)nccc2c(C)c1CNc1cc(OCc2ccc(Cn3cccc(C4CC4)c3=O)cc2)cnn1" showed EC50 equal to < 1 nM

EC50 reading for "Cc1cc2c(N)nccc2c(C)c1CNc1nccc2nc(Cc3cn4cc(C5CC5)ccc4n3)[nH]c12" : < 1 nM

# EC50 (compound: "CNc1nccc2c(C)c(CNC(=O)c3cnn(Cc4cn5cc(C6CC6)ccc5n4)c3)c(C)cc12" ) is < 1 nM

Just so you know, measured EC50 for "Cc1cc2c(N)nccc2c(C)c1CNC(=O)c1cnn(Cc2cn3c(C)c(C4CC4)ccc3n2)c1" came out at < 1 nM

The recorded EC50 for "Cc1ccn2cc(Cn3cc(C(=O)NCc4c(C)cc5c(N)nccc5c4C)cn3)nc2c1" is < 1 nM

Entry "Cc1cc2c(N)nccc2c(C)c1CNc1ncnc2oc(Cc3ccc4ncc(Cl)cc4c3)nc12" , EC50 reported as 10 to 100 nM

// "Cc1cc2c(N)nccc2c(C)c1CNc1cc(NCc2ccc(Cc3cc[nH]n3)cc2)ncn1" : EC50 value = 1 to 10 nM

Summary for this compound, "Cc1cc2c(N)nccc2c(C)c1CNC(=O)c1cnn(Cc2ccc(F)cc2)c1" : EC50 is 100 to 1000 nM

Given item "Cc1c(CN)c(C2(C)CC2)cc2c(Nc3cc(OCc4cn5cc(C6CC6)ccc5n4)ncn3)nccc12" , the value recorded as its EC50 is 100 to 1000 nM

* * *

- subjectOfTest: human activated kallikrein enzyme (Homo sapiens)
- assayComment: Inhibition of human activated plasma kallikrein, fluorogenic PFR-AMC substrate, 500 pM enzyme format
- Type: biochemical
- cond: 500 pM activated kallikrein; 300 μM PFR-AMC; 30 min preincubation; 10 min room temperature; pH 7.5; read-out: Primary Dose Response Assay: Average EC50
- Description: Compounds were evaluated for inhibition of the human activated kallikrein enzyme in two formats of an assay employing a fluorogenic peptide substrate. […] After initiation with substrate, reactions were incubated for 10 min at room temperature and fluorescence emission at 460 nm from 380 nm excitation measured with a microplate reader. […]
pEC50: −log10 of the molar value.
endpointLabel: pEC50

Reported pEC50 ( Cc1cc2c(N)nccc2c(C)c1CNc1cc2c(ccn2Cc2ccc3ncccc3c2)cn1 [Example 528] ) = < 6.00

Please fill in: pEC50 reported for Cc1cc2c(N)nccc2c(C)c1CNc1cc(OC(C)c2ccc(Cn3cccn3)cc2)cnn1 (stereo not shown) [Example 275] = > 9.00

The measured pEC50 associated with Cc1c(CNc2cc(OCc3ccc(Cn4cccn4)cc3)ncn2)ccc2c(N)nccc12 [Example 533] reads 8.00 to 9.00

For record Cc1cc2c(N)nccc2c(C)c1CNc1cc(NCc2cn3cc(C4CC4)ccc3n2)cnc1C(=O)O [Example 497] the listed pEC50 is < 6.00

In plain terms, Cc1cc2c(N)nccc2c(C)c1CNC(=O)c1cnn(Cc2ccc3c(Br)cccc3c2)c1 [Example 113] has a documented pEC50 of 8.00 to 9.00

Documented pEC50 of Cc1cc2c(N)nccc2c(C)c1CNC(=O)c1cnn(Cc2cn3cccc(C)c3n2)c1 [Example 54] : 8.00 to 9.00

Quick note, pEC50 for Cc1cc2c(N)nccc2c(C)c1CNc1cc(NCc2cc(C)c(OCC(=O)N(C)C)c(C)c2)ncn1 [Example 348] landed at 8.00 to 9.00

Measured pEC50 of Cc1cc2c(N)nccc2c(C)c1CNC(=O)c1cnn(CC(=O)Nc2ccccc2)c1 [Example 154] : 6.00 to 7.00

For reference, reported pEC50 for Cc1cc2c(N)nccc2c(C)c1CNc1cc(NCc2ccc(OCc3nccs3)cc2)ncn1 [Example 356] stands at > 9.00

response.value for Cc1cc2c(N)nccc2c(C)c1CNC(=O)c1cnn(Cc2cn3cc(C4CC4C)ccc3n2)c1 (stereo not shown) [Example 178] (field: pEC50) = > 9.00
